# measured-on: thrombin receptor (Homo sapiens, UniProt P25116)
# Construct: washed human platelets are prepared from blood drawn from healthy volunteers; endogenous in cells; host or cells: washed human platelets from healthy volunteers
# Sequence (P25116 22-425): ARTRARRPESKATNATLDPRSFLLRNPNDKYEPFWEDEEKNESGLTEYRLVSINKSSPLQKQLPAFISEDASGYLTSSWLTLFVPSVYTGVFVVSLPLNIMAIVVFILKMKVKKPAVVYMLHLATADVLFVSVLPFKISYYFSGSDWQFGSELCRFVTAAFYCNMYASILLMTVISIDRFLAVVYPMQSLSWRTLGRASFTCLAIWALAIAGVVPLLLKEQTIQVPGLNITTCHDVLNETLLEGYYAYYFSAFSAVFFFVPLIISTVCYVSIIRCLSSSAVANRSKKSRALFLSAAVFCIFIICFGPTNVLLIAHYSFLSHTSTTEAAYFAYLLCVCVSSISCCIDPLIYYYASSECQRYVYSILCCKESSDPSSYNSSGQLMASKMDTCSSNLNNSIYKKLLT
# assay-comment: Platelet aggregation assay for thrombin receptor antagonist activity (washed human platelets stimulated with α-thrombin)
# Type: cell-based
# experimental-conditions: washed human platelets, thrombin-mediated aggregation; read-out: IC50 (concentration at which 50% inhibition of platelet aggregation is achieved)
Where a SMILES comes first, the peptide text is derived from it. [ ]: non-standard residue; d: D form. The star is where a group is joined. Butanoyl(2-OPh) = CCC(Oc1ccccc1)C(=O)*; Cha = N[C@@H](CC1CCCCC1)C(=O)O
Recorded measurements of IC50, one per entry

>  <molecule>
C/C(=C\c1ccccc1)CN[C@@H](CC1CCCCC1)C(=O)N[C@@H](CC1CCCCC1)C(=O)N[C@@H](CCCNC(=N)N)C(=O)N[C@@H](CCCCN)C(N)=O

>  <IC50 / µM>
15

$$$$
>  <molecule>
CCC(Oc1ccccc1)C(=O)N[C@@H](CC1CCCCC1)C(=O)N[C@@H](CC1CCCCC1)C(=O)N[C@@H](CCCCN)C(=O)N[C@@H](CCCCN)C(N)=O (stereo partly drawn) [Compound 49] ({Butanoyl(2-OPh)}-[Cha][Cha]KK-NH2)

>  <IC50 / µM>
75

$$$$
>  <molecule>
CCC(Oc1ccccc1)C(=O)N[C@@H](CC1CCCCC1)C(=O)N[C@@H](CC1CCCCC1)C(=O)NCCCN1CCN(CCCN)CC1 (stereo partly drawn)

>  <IC50 / µM>
90

$$$$
